# system: HIV-1 Env of isolate ZM249 (HIV-1)
# method.summary: cell-based or functional assay
quantity.kind: IC50, pseudovirus neutralization (TZM-bl)

So for 1469_M23 (PG16) (TCN-118) (antibody, V domains shown) VH: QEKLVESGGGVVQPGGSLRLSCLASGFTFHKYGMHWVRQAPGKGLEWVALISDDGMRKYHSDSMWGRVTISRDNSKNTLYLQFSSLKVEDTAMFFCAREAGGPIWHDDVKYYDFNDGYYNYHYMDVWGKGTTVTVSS VL: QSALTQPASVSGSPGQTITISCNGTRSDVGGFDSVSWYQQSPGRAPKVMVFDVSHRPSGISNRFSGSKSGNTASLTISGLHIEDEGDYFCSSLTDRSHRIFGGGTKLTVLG , the logged IC50, pseudovirus neutralization (TZM-bl) turned out to be < 0.01 µg/mL

So for 1503_H05 (PG16) (TCN-119) (antibody, V domains shown) VH: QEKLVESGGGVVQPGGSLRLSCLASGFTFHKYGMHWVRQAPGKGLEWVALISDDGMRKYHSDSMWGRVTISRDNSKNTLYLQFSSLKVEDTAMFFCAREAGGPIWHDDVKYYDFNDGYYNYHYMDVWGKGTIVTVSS VL: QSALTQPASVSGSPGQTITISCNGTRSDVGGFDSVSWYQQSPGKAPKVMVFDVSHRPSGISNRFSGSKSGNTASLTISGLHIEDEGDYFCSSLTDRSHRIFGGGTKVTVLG , the logged IC50, pseudovirus neutralization (TZM-bl) turned out to be < 0.01 µg/mL

So for 1456_A12 (PG16) (TCN-117) (antibody, V domains shown) VH: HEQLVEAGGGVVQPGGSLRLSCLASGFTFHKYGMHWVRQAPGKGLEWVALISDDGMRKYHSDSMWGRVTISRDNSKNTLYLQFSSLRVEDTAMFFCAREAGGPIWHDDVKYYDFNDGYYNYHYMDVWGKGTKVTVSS VL: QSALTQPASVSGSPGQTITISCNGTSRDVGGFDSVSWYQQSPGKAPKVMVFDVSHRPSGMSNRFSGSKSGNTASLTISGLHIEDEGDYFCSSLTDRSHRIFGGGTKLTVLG , the logged IC50, pseudovirus neutralization (TZM-bl) turned out to be < 0.01 µg/mL

Reference source: patent US20200024330A1
